measurement.target: T1, human GLP-1 receptor (human, UniProt P43220 24-463)
T1 construct: whole, on cells; also called hGLP-1R
experiment.summary: receptor binding affinity (GLP-1R IC50); assay format not described
assay.metric: pIC50
The read-out pIC50 is expressed as -log10 of concentration in moles per litre.

pIC50 reading for HSEGTFTSDYSKYLDSRRAQDFVQWLMNTKRNRNNIA (Native OXM with Glu instead of Gln at position 3; the entry already carries the change; also called OXM8 (Q3E); GLP-1 mimetic) [OXM-Q3E] : 6.63
